- Method: Renal clearance in healthy Homo sapiens (human)
- Assay type: ADME, organism-based, Kidney
- Condition Context: in vivo
Assay Endpoint: CL renal

> print(dat)
                                   compound  measurement
1  COc1cc2c(c(OC)c1OC)-c1ccc(OC)c(=O)cc1[C@@H](NC(C)=O)CC2 [COLCHICINE]  66.7 mL/min

----------
- Method: Volume of distribution in Homo sapiens (human)
- Type: ADME, organism-based
- Condition Context: in vivo
Assay Endpoint: Vd

> print(dat)
                                   compound  assay.endpoint  measurement
1  COc1cc2c(c(OC)c1OC)-c1ccc(OC)c(=O)cc1[C@@H](NC(C)=O)CC2 [COLCHICINE]              Vd       7 L/kg
